Target: hCA IX (Homo sapiens)
Construct: purchased
Experiment: CA inhibition by the esterase assay, hCA IX
Type: biochemical
Details: ratio of IC50 values
Provide the reported Selectivity Ratio hCA II/hCA IX of each item.

INSERT INTO measurements (compound, value_observed) VALUES
  ('Cc1cc(=O)oc2cc(OCc3cn([C@@H]4OC[C@H](O)[C@H](O)[C@H]4O)nn3)ccc12 [Compound 10n]', 271),
  ('Cc1cc(=O)oc2cc(OCc3cn([C@@H]4O[C@H](CO)[C@@H](O)[C@H]4O)nn3)ccc12 [Compound 10p]', 229),
  ('C[C@@H]1O[C@H](n2cc(COc3ccc4ccc(=O)oc4c3)nn2)[C@H](O)[C@H](O)[C@H]1O [Compound 10g]', 255),
  ('O=c1ccc2ccc(OCc3cn([C@@H]4OC[C@@H](O)[C@H](O)[C@H]4O)nn3)cc2o1 [Compound 10e]', 344);

// moving on: another record for Selectivity Ratio hCA II/hCA IX
[ask] Test system hCA IX (Homo sapiens); read-out Selectivity Ratio hCA II/hCA IX; what value for O=c1ccc2ccc(OCc3cn([C@@H]4O[C@H](CO)[C@H](O)[C@H](O)[C@H]4O)nn3)cc2o1 [Compound 10b] ?
[reply] 423

###

result type: melting point

INSERT INTO assay_data (compound, result_type, value_observed) VALUES
  ('Cc1cc(=O)oc2cc(OCc3cn([C@@H]4O[C@H](CO)[C@@H](O)[C@H]4O)nn3)ccc12 [Compound 10p]', 'melting point', '123.2 to 125.6 °C'),
  ('C[C@@H]1O[C@H](n2cc(COc3ccc4ccc(=O)oc4c3)nn2)[C@H](O)[C@H](O)[C@H]1O [Compound 10g]', 'melting point', '126.1 to 129.6 °C'),
  ('Cc1cc(=O)oc2cc(OCc3cn([C@@H]4OC[C@@H](O)[C@H](O)[C@H]4O)nn3)ccc12 [Compound 10m]', 'melting point', '122.4 to 123.9 °C');

// moving on: another record for melting point
[ask] Endpoint output: melting point of Cc1cc(=O)oc2cc(OCc3cn([C@@H]4O[C@H](CO)[C@H](O)[C@H](O)[C@H]4O)nn3)ccc12 [Compound 10j] . Value?
[reply] 124.2 to 126.6 °C

###

Experiment: Metabolic stability in mouse liver microsomes
Conditions: mouse, liver microsomes
result type: half-life at 1 μM (h)
Give bare numbers, in h.

These solved cases illustrate the format of a correct answer.
INSERT INTO measurements (compound, value_observed) VALUES
  ('C[C@@H]1O[C@H](n2cc(COc3ccc4ccc(=O)oc4c3)nn2)[C@H](O)[C@H](O)[C@H]1O [Compound 10g]', 25),
  ('O=c1ccc2ccc(OCc3cn([C@@H]4O[C@H](CO)[C@@H](O)[C@H](O)[C@H]4O)nn3)cc2o1 [Compound 10a]', 19.2),
  ('N[C@@H]1[C@@H](O)[C@H](O)[C@@H](CO)O[C@H]1n1cc(COc2ccc3ccc(=O)oc3c2)nn1 [Compound 10d]', 21.5);

# batch size: 5; output half-life at 1 μM per entry
1. Cc1cc(=O)oc2cc(OCc3cn([C@H]4O[C@@H](C)[C@H](O)[C@@H](O)[C@H]4O)nn3)ccc12 [Compound 10o]
2. O=c1ccc2ccc(OCc3cn([C@@H]4O[C@H](CO)[C@@H](O)[C@H]4O)nn3)cc2o1 [Compound 10h]
3. Cc1cc(=O)oc2cc(OCc3cn([C@@H]4O[C@H](CO)[C@@H](O)[C@H](O)[C@@H]4O)nn3)ccc12 [Compound 10k]
4. O=c1ccc2ccc(OCc3cn([C@@H]4OC[C@@H](O)[C@H](O)[C@H]4O)nn3)cc2o1 [Compound 10e]
5. Cc1cc(=O)oc2cc(OCc3cn([C@@H]4OC[C@@H](O)[C@H](O)[C@H]4O)nn3)ccc12 [Compound 10m]

[reply]
[29.2, 21.7, 28.1, 22.6, 27.1]

# batch size: 2; output half-life at 1 μM per entry
1. O=c1ccc2ccc(OCc3cn([C@@H]4O[C@H](CO)[C@H](O)[C@H](O)[C@H]4O)nn3)cc2o1 [Compound 10b]
2. Cc1cc(=O)oc2cc(OCc3cn([C@@H]4OC[C@H](O)[C@H](O)[C@H]4O)nn3)ccc12 [Compound 10n]

[reply]
1. 21.1
2. 25.7

###

Assay: Plasma stability assay
Assay type: in vitro ADME
Conditions: male, SD, pH 7.4; rat plasma, 37 °C, time point 30 min
result type: remaining at 0.5 h (%)
Answers are plain numbers, in %.

[ask] Endpoint output: remaining at 0.5 h of O=c1ccc2ccc(OCc3cn([C@@H]4O[C@H](CO)[C@@H](O)[C@H](O)[C@H]4O)nn3)cc2o1 [Compound 10a] . Value?
[reply] 93

###

Molecular target: hCA I (Homo sapiens, UniProt P00915)
Sequence (P00915 whole entry): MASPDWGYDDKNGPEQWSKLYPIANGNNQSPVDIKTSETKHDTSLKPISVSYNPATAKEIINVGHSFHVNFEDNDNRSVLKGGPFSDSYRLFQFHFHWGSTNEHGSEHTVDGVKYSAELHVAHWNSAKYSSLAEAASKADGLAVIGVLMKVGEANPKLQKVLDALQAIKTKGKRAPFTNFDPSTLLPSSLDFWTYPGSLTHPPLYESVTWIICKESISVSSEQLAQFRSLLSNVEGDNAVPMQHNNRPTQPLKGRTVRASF
Experiment: CA inhibition by the esterase assay, hCA I
Details: human recombinant enzyme, 4-nitrophenylacetate as substrate
result type: IC50

These solved cases illustrate the format of a correct answer.
INSERT INTO measurements (molecule, result_type, value_observed) VALUES
  ('Cc1cc(=O)oc2cc(OCc3cn([C@@H]4O[C@H](CO)[C@@H](O)[C@H](O)[C@H]4O)nn3)ccc12 [Compound 10i]', 'IC50', '32.1 µM'),
  ('Cc1cc(=O)oc2cc(OCc3cn([C@@H]4OC[C@@H](O)[C@H](O)[C@H]4O)nn3)ccc12 [Compound 10m]', 'IC50', '43.9 µM');

// moving on: another record for IC50
[ask] Endpoint output: IC50 of O=c1ccc2ccc(OCc3cn([C@@H]4OC[C@H](O)[C@H](O)[C@H]4O)nn3)cc2o1 [Compound 10f] . Value?
[reply] 65.6 µM

###

Provide the reported pIC50 of each item.
Molecular target: hCA II (Homo sapiens, UniProt P00918)
Experiment: CA inhibition by the esterase assay, hCA II
Conditions: human recombinant enzyme, 4-nitrophenylacetate as substrate
Give bare numbers, as −log10 of the molar value.

INSERT INTO results (molecule, value_observed) VALUES
  ('Cc1cc(=O)oc2cc(OCc3cn([C@@H]4O[C@H](CO)[C@@H](O)[C@H](O)[C@@H]4O)nn3)ccc12 [Compound 10k]', 4.64),
  ('N[C@@H]1[C@@H](O)[C@H](O)[C@@H](CO)O[C@H]1n1cc(COc2ccc3ccc(=O)oc3c2)nn1 [Compound 10d]', 4.48);

# batch size: 4; output pIC50 per entry
1. O=c1ccc2ccc(OCc3cn([C@@H]4OC[C@H](O)[C@H](O)[C@H]4O)nn3)cc2o1 [Compound 10f]
2. Cc1cc(=O)oc2cc(OCc3cn([C@@H]4O[C@H](CO)[C@@H](O)[C@H](O)[C@H]4N)nn3)ccc12 [Compound 10l]
3. Cc1cc(=O)oc2cc(OCc3cn([C@@H]4OC[C@@H](O)[C@H](O)[C@H]4O)nn3)ccc12 [Compound 10m]
4. C[C@@H]1O[C@H](n2cc(COc3ccc4ccc(=O)oc4c3)nn2)[C@H](O)[C@H](O)[C@H]1O [Compound 10g]

[reply]
1. 4.50
2. 4.50
3. 4.65
4. 4.50

###

Provide the reported viability at 100 µM of each item.
System: MDA-MB-231 cells
Experiment: Cell viability MTT assay, MDA-MB-231
Assay type: cell-based
Details: Homo sapiens, hypoxia (0.5% O2, 5% CO2 and 94.5% N2), read-out: Cell Viability (%) MDA-MB-231 Hypoxia
One number for each entry, in %.

These solved cases illustrate the format of a correct answer.
INSERT INTO assay_data (compound, value_observed) VALUES
  ('Cc1cc(=O)oc2cc(OCc3cn([C@@H]4O[C@H](CO)[C@@H](O)[C@H](O)[C@@H]4O)nn3)ccc12 [Compound 10k]', 33.7),
  ('Cc1cc(=O)oc2cc(OCc3cn([C@@H]4O[C@H](CO)[C@H](O)[C@H](O)[C@H]4O)nn3)ccc12 [Compound 10j]', 40.9),
  ('Cc1cc(=O)oc2cc(OCc3cn([C@@H]4O[C@H](CO)[C@@H](O)[C@H]4O)nn3)ccc12 [Compound 10p]', 35.2);

# batch size: 6; output viability at 100 µM per entry
1. O=c1ccc2ccc(OCc3cn([C@@H]4OC[C@@H](O)[C@H](O)[C@H]4O)nn3)cc2o1 [Compound 10e]
2. O=c1ccc2ccc(OCc3cn([C@@H]4O[C@H](CO)[C@@H](O)[C@H]4O)nn3)cc2o1 [Compound 10h]
3. O=c1ccc2ccc(OCc3cn([C@@H]4O[C@H](CO)[C@@H](O)[C@H](O)[C@H]4O)nn3)cc2o1 [Compound 10a]
4. Cc1cc(=O)oc2cc(OCc3cn([C@@H]4O[C@H](CO)[C@@H](O)[C@H](O)[C@H]4O)nn3)ccc12 [Compound 10i]
5. O=c1ccc2ccc(OCc3cn([C@@H]4OC[C@H](O)[C@H](O)[C@H]4O)nn3)cc2o1 [Compound 10f]
6. O=c1ccc2ccc(OCc3cn([C@@H]4O[C@H](CO)[C@H](O)[C@H](O)[C@H]4O)nn3)cc2o1 [Compound 10b]

[reply]
1: 42.9; 2: 37.2; 3: 32.9; 4: 33.2; 5: 33.8; 6: 33.7
